Each recorded value in this set is attributed to paper PMC5540273.

For each of the molecules below, state its %Inh.
- Test system: TEC
- Measurement Conditions: concentration: 1 μM, replicates: in singlicate; n = 1;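 further: KINOMEscan kinase panel screen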
Report as: number unit

[[record]]
molecule = "COC(=O)Nc1nc2cc(Oc3ccc(NC(=O)Nc4cc(C(F)(F)F)ccc4F)cn3)ccc2[nH]1.Cl.Cl"
reported = "0%"


For every item in the list below, what is its measured %Inh?
1. Cc1occc1-c1ncc(OC[C@@H](N)Cc2c[nH]c3ccccc23)cc1-c1ccc2[nH]nc(C)c2c1.O=C(O)C(F)(F)F
2. Cc1ccc(C(=O)Nc2ccc(Nc3ccnc4cc(-c5nccs5)ccc34)cc2O)cc1.Cl
3. Cc1ccc(S(=O)(=O)Nc2ccc(Nc3nccc(Nc4cccc5[nH]ncc45)n3)cc2)cc1
4. O=C(Nc1cccc(Oc2ccc3nc(NC(=O)C4CC4)cn3n2)c1)c1ccccc1C(F)(F)F

Outgoing:
["0%", "0%", "9%", "5%"]

----------
What %Inh was measured for each of the following?
- Tested on: PIP5K1C
- Measurement Conditions: concentration: 1 μM, replicates: in singlicate; n = 1
One number for each entry, in %.

[[record]]
compound = "COc1cc(Nc2nccc(N3CCC(NC(=O)c4cc5ccccc5s4)C3)n2)cc(OC)c1OC (stereo not drawn)"
reported = 52

[[record]]
compound = "O=C(NC1CCN(c2ccnc(Nc3ccc(F)cc3)n2)C1)c1cc2ccccc2s1 (stereo not drawn)"
reported = 60


Consider the record given below.
Entry under test: Oc1cc(Nc2ccnc3cc(I)ccc23)ccc1F . Its %Inh was 13

----------
- Tested on: p38-gamma
- Construct: gene MAPK12
- Measurement Conditions: concentration: 1 μM, replicates: in singlicate; n = 1
Measured Metric: %Inh (%)
Give bare numbers, in %.

[[record]]
compound = "CNC(=O)c1ccccc1Nc1nc(Nc2ccc(N3CCOCC3)cc2)ncc1Cl.Cl"
measured_metric = "%Inh"
reported = 13

[[record]]
compound = "COc1ccc(Nc2nccc(N3CCC(NC(=O)Nc4cccc(OC)c4)C3)n2)cc1 (centres unmarked)"
measured_metric = "%Inh"
reported = 0

[[record]]
compound = "CSc1cccc2c(-c3ccncn3)c(-c3ccc(F)cc3)nn12"
measured_metric = "%Inh"
reported = 2

[[record]]
compound = "Cc1ccc(C)c(NC(=O)NC2CCN(c3ccnc(Nc4ccc(F)cc4)n3)C2)c1 (centres unmarked)"
measured_metric = "%Inh"
reported = 16


As a next step, examine the compound that follows.
Short answer for COc1cc(Nc2ncc3c(C)nc(-c4cc5ccccc5[nH]4)n3n2)cc(OC)c1OC : %Inh was 16

----------
- Test system: AURKB
- Measurement Conditions: concentration: 1 μM, replicates: in singlicate; n = 1
Assign %Inh to each entry below.
Give bare numbers, in %.

For every item in the list below, what is its measured %Inh?
1. Cl.Cl.NCC(NCc1ccc(-c2ccnc3[nH]ccc23)s1)c1ccccc1 (stereo not drawn)
2. Cc1ccc(S(=O)(=O)Nc2ccc(Nc3nccc(Nc4cccc5[nH]ncc45)n3)cc2)cc1
3. c1ccc(Oc2ccc(Nc3ccnc4cc(-c5ccc(CNCCN6CCOCC6)o5)ccc34)cc2)nc1
4. Cc1cccc(NC(=O)Nc2ccc(Oc3ncnc4ccn(C)c34)cc2)c1
5. Cc1cccc(Nc2nc(N[C@H]3CCNC3)ncc2C(N)=O)c1.Cl

Outgoing:
[79, 37, 71, 94.9, 0]

Give one value of %Inh per listed compound.
1. O=C(Nc1n[nH]c2cc(-c3ccoc3)ccc12)C1CC1
2. COc1cc(Nc2nccc(N3CCC(NC(=O)c4cc5ccccc5s4)C3)n2)cc(OC)c1OC (stereo not drawn)
3. O=C(Nc1cccc(-c2nn3ccccc3c2-c2ccnc(Nc3cccc(C(F)(F)F)c3)n2)c1)c1c(F)cccc1F
4. O=C(Nc1ccccc1F)NC1CCN(c2ccnc(Nc3ccc(F)cc3)n2)CC1
5. COc1cc(Nc2nccc(-c3c(-c4cccc(NC(=O)c5c(F)cccc5F)c4)nn4ccccc34)n2)cc(OC)c1OC
6. c1ccc(-c2cnc3nccnn23)cc1

Outgoing:
[20, 68, 0, 0, 90.6, 13]

Look at each compound and report its %Inh.
1. COc1ccc(Nc2nccc(N3CCC(NC(=O)Nc4cccc(OC)c4)C3)n2)cc1 (stereo not drawn)
2. C[C@@H](Oc1cc(-n2cnc3cc(-c4ccnc(NCCS(C)(=O)=O)c4)ccc32)sc1C(N)=O)c1ccccc1Cl
3. O=C(O)C(F)(F)F.O=C(O)C(F)(F)F.O=c1[nH]ccc2nc(N[C@@H]3CCCNC3)nc(Nc3ccc(S(=O)(=O)N4CCOCC4)cc3)c12
4. CSc1cccc2c(-c3ccncn3)c(-c3ccc(F)cc3)nn12
5. CN1CCN(CCCNc2nccc(-c3c(-c4ccc(F)cc4)nn4cc(C(F)(F)F)ccc34)n2)CC1
6. CCn1c(-c2nonc2N)nc2c(C#CC(C)(C)O)ncc(OCCCCN)c21.O=C(O)C(F)(F)F.O=C(O)C(F)(F)F

Outgoing:
1: 53; 2: 27; 3: 97.6; 4: 15; 5: 11; 6: 38

%Inh reported for this compound Oc1cc(Nc2ccnc3cc(I)ccc23)ccc1F : 8

----------
Assignment: determine reported %Inh for the given compounds.
- System: DCAMKL1
- Construct: gene DCLK1
- Measurement Conditions: concentration: 1 μM, replicates: in singlicate; n = 1

[[record]]
compound = "COc1ccc(Nc2nccc(NCCNC(=O)c3cc4ccccc4s3)n2)cc1"
measured_metric = "%Inh"
reported = "10%"

[[record]]
compound = "COc1cc(Nc2nccc(-c3c(-c4cccc(NC(=O)c5c(F)cccc5F)c4)nn4ncccc34)n2)cc(OC)c1OC"
measured_metric = "%Inh"
reported = "12%"

[[record]]
compound = "COCCOCCOc1cc2ncc3c4ccc(C#N)cc4[nH]c3c2cc1OC"
measured_metric = "%Inh"
reported = "20%"

[[record]]
compound = "O=C(O)C(F)(F)F.O=C(O)C(F)(F)F.O=c1[nH]ccc2nc(N[C@@H]3CCCNC3)nc(Nc3ccc(S(=O)(=O)N4CCOCC4)cc3)c12"
measured_metric = "%Inh"
reported = "98.1%"

[[record]]
compound = "CN1CCN(Cc2cccc(-c3ccc4c(Nc5ccc(Oc6ccccc6)cc5)ccnc4c3)c2)CC1"
measured_metric = "%Inh"
reported = "13%"


The following compounds each have a reported value; give each one's %Inh.
1. CC(=O)Nc1nc2cnc(Nc3cc(NC(=O)c4cccc(C5(C#N)CC5)c4Cl)ccc3C)nc2s1
2. Cc1occc1-c1ncc(OC[C@@H](N)Cc2c[nH]c3ccccc23)cc1-c1ccc2[nH]nc(C)c2c1.O=C(O)C(F)(F)F
3. O=c1[nH]cc(-c2ccc(N3CCOCC3)cc2)c2sc(-c3cn[nH]c3)cc12
4. Cc1cccc(NC(=O)Nc2ccc(Oc3ncnc4ccn(C)c34)cc2)c1

Outgoing:
23%
10%
12%
45%

----------
For each of the compounds below, state its %Inh.
- Tested on: ERN1
- Measurement Conditions: concentration: 1 μM, replicates: in singlicate; n = 1
Answers are plain numbers, in %.

[[record]]
compound = "Clc1ccc(-c2nn3ncccc3c2-c2ccnc(Nc3ccc4c(c3)OCCO4)n2)cc1"
reported = 0

[[record]]
compound = "Nc1ncnc2c1nc(-c1ccccc1)n2-c1ccccc1"
reported = 35

[[record]]
compound = "O=C(Nc1ccccc1F)NC1CCN(c2ccnc(Nc3ccc(F)cc3)n2)CC1"
reported = 0

[[record]]
compound = "COc1cc(Nc2nccc(N3CCC(NC(=O)c4cc5ccccc5s4)C3)n2)cc(OC)c1OC (centres unmarked)"
reported = 6

[[record]]
compound = "Cc1ccc(C(=O)N2CC[C@@H](O)C2)cc1-n1c(C)cc(OCc2ccc(F)cc2F)c(Br)c1=O"
reported = 0


# batch: return %Inh for each of the 4 compounds below
1. CCn1c(-c2nonc2N)nc2c(C#CC(C)(C)O)ncc(OCCCCN)c21.O=C(O)C(F)(F)F.O=C(O)C(F)(F)F
2. O=C(Nc1cccc(-c2nn3ccccc3c2-c2ccnc(Nc3cccc(F)c3)n2)c1)c1c(F)ccc(F)c1Cl
3. C[C@@H]1CC[C@@H](C(=O)Nc2ccccc2)CN1c1cc(-c2ccc3c(N)n[nH]c3c2)nc(N)n1
4. COC(=O)Nc1nc2cc(Oc3ccc(NC(=O)Nc4cc(C(F)(F)F)ccc4F)cn3)ccc2[nH]1.Cl.Cl

Outgoing:
[0, 17, 0, 0]

----------
- Tested on: NIK
- Construct: gene MAP3K14
- Measurement Conditions: concentration: 1 μM, replicates: in singlicate; n = 1
# class assignment by measured %Inh: low bracket (below 6%), middle bracket (6% to below 20%), high bracket (20% or more)

# example entries with known answers
[[record]]
compound = "CCc1ccc(-c2ccc3c(c2)-c2c(cnn2C)S(=O)(=O)N3C)cc1"
classification = "low bracket"

[[record]]
compound = "CCn1c(-c2nonc2N)nc2c(C#CC(C)(C)O)nc(OC[C@H](N)c3ccccc3)cc21 [GSK943949]"
classification = "high bracket"

[[record]]
compound = "O=C(Nc1n[nH]c2cc(-c3ccoc3)ccc12)C1CC1 [SB-738481]"
classification = "middle bracket"

[[record]]
compound = "c1ccc(-c2cnc3nccnn23)cc1 [AH20685]"
classification = "low bracket"

[[record]]
compound = "O=C(Nc1cccc(-c2nn3ccccc3c2-c2ccnc(Nc3cccc(C(F)(F)F)c3)n2)c1)c1c(F)cccc1F [GSK292658]"
classification = "low bracket"


Incoming: Input O=C(Nc1cccc(-c2nn3ccccc3c2-c2ccnc(Nc3cccc(F)c3)n2)c1)c1c(F)ccc(F)c1Cl [GSK357952] ; output its category
Outgoing: high bracket

Incoming: State the class of the compound shown: Nc1ncc(-c2cccnc2)c2scc(-c3ccc4c(c3)CCN4C(=O)Cc3ccccc3)c12 [GSK683281]
Outgoing: low bracket

Incoming: Category of Cc1ccc(F)c(C(=O)Nc2cccc(-c3nn4ccccc4c3-c3ccnc(Nc4cccc(F)c4)n3)c2)c1F [GSK361061] :
Outgoing: low bracket

Incoming: Which category fits this record: C[C@@H](Oc1cc(-n2cnc3cc(-c4ccnc(NCCS(C)(=O)=O)c4)ccc32)sc1C(N)=O)c1ccccc1Cl [GSK907232]
Outgoing: low bracket

Incoming: Which %Inh category applies to Nc1ncnc2c1nc(-c1ccccc1)n2-c1ccccc1 [SKF-97293] here?
Outgoing: high bracket

Incoming: Given Cn1cc(-c2ccc3c(c2)CCN3C(=O)Cc2cccc(Cl)c2)c2c(N)ncnc21 [GSK2606590] , name the class its %Inh places it in.
Outgoing: high bracket

Incoming: Which bin, given its %Inh, does Cl.Cl.NCC(C(=O)Nc1cc(Br)c(-c2ccnc3[nH]ccc23)s1)c1ccccc1 (stereo not drawn) [GSK1269851] occupy?
Outgoing: middle bracket

Incoming: Returns: class label. Input: CSc1cccc2c(-c3ccncn3)c(-c3ccc(F)cc3)nn12 [GW514786]
Outgoing: middle bracket

Incoming: The entry to classify is O=c1[nH]cc(-c2ccc(N3CCOCC3)cc2)c2sc(-c3cn[nH]c3)cc12 [GSK2276055] ; which class holds it?
Outgoing: middle bracket

Incoming: Assign a bin to O=C(Nc1ccccc1F)NC1CCN(c2ccnc(Nc3ccc(F)cc3)n2)CC1 [GSK1379800]
Outgoing: middle bracket

Incoming: // bin(item) where item = CNC(=O)c1ccccc1Nc1nc(Nc2ccc(N3CCOCC3)cc2)ncc1Cl.Cl [GSK1576028]
Outgoing: high bracket

Incoming: Looking at c1ccc(-c2n[nH]cc2Nc2ccnc3ccccc23)nc1 [GW694077] , which class would you pick?
Outgoing: middle bracket

Incoming: In plain terms, what class is COc1ccc(Nc2nccc(NCCNC(=O)c3cc4ccccc4s3)n2)cc1 [GSK1379896] ?
Outgoing: middle bracket

Incoming: Form field 'band' for Cn1cc(-c2ccc3c(c2)CCN3C(=O)Cc2cccc(F)c2)c2c(N)ncnc21 [GSK2603358]
Outgoing: high bracket

Incoming: Hi there! Could you help me figure out the category for CC(C)c1nc(-c2cccc(NS(=O)(=O)c3c(F)cccc3F)c2F)c(-c2ccnc(Nc3ccc(N4CCOCC4)nc3)n2)s1 [GSK2008607] please?
Outgoing: low bracket

Incoming: Note: place this compound into its band. Item: O=C(NC1CCN(c2ccnc(Nc3ccc(F)cc3)n2)C1)c1cc2ccccc2s1 (stereo not drawn) [GSK1379716]
Outgoing: high bracket

Incoming: Which of the defined bands does the recorded %Inh of Cc1occc1-c1ncc(OC[C@@H](N)Cc2c[nH]c3ccccc23)cc1-c1ccc2[nH]nc(C)c2c1.O=C(O)C(F)(F)F [GSK682037] sit within?
Outgoing: high bracket

Incoming: Exercise: read the entry CC(=O)N1CCN(c2ccc(Nc3nccc(-c4sc(C(C)C)nc4-c4cccc(NS(=O)(=O)c5cccc(Cl)c5)c4)n3)cn2)CC1 [GSK1660437] and state which class it falls under.
Outgoing: middle bracket

Incoming: Returns: class label. Input: COc1cc(Nc2nccc(N3CCC(NC(=O)Nc4cccc(C(C)=O)c4)C3)n2)cc(OC)c1OC (stereo not drawn) [GSK1379753]
Outgoing: low bracket

Incoming: Hey, which category is c1ccc(Oc2ccc(Nc3ccnc4cc(-c5ccc(CNCCN6CCOCC6)o5)ccc34)cc2)nc1 [GW567145] in, do you know?
Outgoing: high bracket
